inhibition overview
Target: NAD-dependent protein deacetylase (Schistosoma mansoni)
Assay: Inhibition of recombinant Schistosoma mansoni sirtuin 2 (21 to 322 residues) expressed in Escherichia coli BL21(DE3) cells at 25 uM using ZMAL as susbtrate after 1 hr in presence of NAD+ by homogeneous fluorescence based analysis relative to control

Worked examples, 4 compounds total:
[
  {
    "COMPOUND": "COc1ccc(Oc2ccc(CN(C)c3ncc(C#N)c(N)n3)cc2)cc1",
    "inhibition": "< 15%"
  },
  {
    "COMPOUND": "COc1ccc(Oc2ccc(C(C)N(C)c3ncc4c(N)nc(N)nc4n3)cc2)c2ccccc12 (stereo not drawn)",
    "inhibition": "18.4%"
  },
  {
    "COMPOUND": "COc1ccc(CNc2ncc3c(N)nc(N)nc3n2)cc1",
    "inhibition": "< 15%"
  },
  {
    "COMPOUND": "CC(c1ccc(Oc2ccc(OCc3ccccc3)cc2)cc1)N(C)c1ncc2c(N)nc(N)nc2n1 (stereo not drawn)",
    "inhibition": "40.3%"
  }
]

**Query** Note down inhibition recorded for CC1CCCCN1c1ncc2c(N)nc(N)nc2n1 (stereo not drawn)
**Result** < 15%
